Assay: amyloid nucleation score (Sup35N fusion, yeast selection) (log enrichment); library NNK3; higher = more nucleation; inactive = no reads after selection;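 also: zero at mode of non-aggregating sequences after 7 days selection at 30°C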
propertyLabel: amyloid nucleation score

>  <substance>
RGAGSTESLTNGRGSIAIHR

>  <endpointValue>
inactive

$$$$
>  <substance>
ATYNEMYVVPSRASPKGDWD

>  <endpointValue>
inactive

$$$$
>  <substance>
MYLIYGHGTIIICTESVSVH

>  <endpointValue>
0.361

$$$$
>  <substance>
THNVRDMLPATETFASKSGG

>  <endpointValue>
1.1

$$$$

Exam item: Dear colleague, I am looking for the recorded amyloid nucleation score of the following substance: SGIRDHLMRTKFDFVFKM
Marked response: inactive

Exam item: Dear colleague, I am looking for the recorded amyloid nucleation score of the following substance: HDYYLLLLTATL
Marked response: inactive

Exam item: Dear colleague, I am looking for the recorded amyloid nucleation score of the following substance: GPMNLMRSVRYALSRSYLLL
Marked response: inactive

---

Test: amyloid nucleation score (Sup35N fusion, yeast selection) (log enrichment); library NNK2; higher = more nucleation; inactive = no reads after selection
propertyLabel: amyloid nucleation score
Please respond with just the number, no unit label.

Exam item: Dear colleague, I am looking for the recorded amyloid nucleation score of the following substance: RDARNKFCDGLTVGILGACM
Marked response: -0.368

Exam item: Dear colleague, I am looking for the recorded amyloid nucleation score of the following substance: DNDYTWIKFLKCGRADASGT
Marked response: 0.157

Exam item: Dear colleague, I am looking for the recorded amyloid nucleation score of the following substance: VLCRRHSN
Marked response: 1.41

Exam item: Dear colleague, I am looking for the recorded amyloid nucleation score of the following substance: IYDNMVDKFVSKGRCAVSPD
Marked response: -0.066

Exam item: Dear colleague, I am looking for the recorded amyloid nucleation score of the following substance: DNVMLYKRKKQRPIMVPWSA
Marked response: -0.488

Exam item: Dear colleague, I am looking for the recorded amyloid nucleation score of the following substance: YRGYAPIYLHLRSSYVPVAL
Marked response: -0.319

Exam item: Dear colleague, I am looking for the recorded amyloid nucleation score of the following substance: TMFEGFRCLRR
Marked response: 0.923

Exam item: Dear colleague, I am looking for the recorded amyloid nucleation score of the following substance: NFNFNCA
Marked response: 3.87

Exam item: Dear colleague, I am looking for the recorded amyloid nucleation score of the following substance: CRSSGFRFTLRKWCWNVNEC
Marked response: -0.7

---

Assay: amyloid nucleation score (Sup35N fusion, yeast selection) (log enrichment); library NNK2; higher = more nucleation; inactive = no reads after selection
Label label 0 if amyloid nucleation score falls below 0.3; label label 1 in every other case.

Exam item: Does the substance KIVCDPGCIFMPFLCVCLLW have recorded amyloid nucleation score that is 0.3 or more?
Marked response: label 1

Exam item: Does the substance FVYQCMCFNADLCFKFRLCS have recorded amyloid nucleation score that is 0.3 or more?
Marked response: label 1

Exam item: Does the substance LMAKVRLRVGLGHWLDVWG have recorded amyloid nucleation score that is 0.3 or more?
Marked response: label 1

Exam item: Does the substance RGCMEVWVLYQSNALSM have recorded amyloid nucleation score that is 0.3 or more?
Marked response: label 1

Exam item: Does the substance DPNLPETVTGVIMFASVGGA have recorded amyloid nucleation score that is 0.3 or more?
Marked response: label 0

Exam item: Does the substance RGSSALDE have recorded amyloid nucleation score that is 0.3 or more?
Marked response: label 1

Exam item: Does the substance YANMVRERINWI have recorded amyloid nucleation score that is 0.3 or more?
Marked response: label 0

Exam item: Does the substance RPKYCQVVAGLVNYGVRLVV have recorded amyloid nucleation score that is 0.3 or more?
Marked response: label 0

Exam item: Does the substance VYMKKINSFITMMSVHGNCS have recorded amyloid nucleation score that is 0.3 or more?
Marked response: label 1

Exam item: Does the substance AGSARRLGLMPRGSGYALGW have recorded amyloid nucleation score that is 0.3 or more?
Marked response: label 1

Exam item: Does the substance MKCDIFGGLSDN have recorded amyloid nucleation score that is 0.3 or more?
Marked response: label 1

Exam item: Does the substance FILGSESNLRVSMRLFGSNW have recorded amyloid nucleation score that is 0.3 or more?
Marked response: label 1

Exam item: Does the substance HIYRKM have recorded amyloid nucleation score that is 0.3 or more?
Marked response: label 0

Exam item: Does the substance NREFCFFVSDVKIPYTPCVP have recorded amyloid nucleation score that is 0.3 or more?
Marked response: label 0

Exam item: Does the substance RKNSWDISHPAGTCNIRFIL have recorded amyloid nucleation score that is 0.3 or more?
Marked response: label 1

Exam item: Does the substance CRSAVRRILGFNLSRVFSWF have recorded amyloid nucleation score that is 0.3 or more?
Marked response: label 0
